ASSAY SYSTEM: K18PL tau (Homo sapiens, UniProt P10636, P618L)
Construct: (K18PL; amino acids 244-369); made in house
Sequence (P10636 561-686 P618L): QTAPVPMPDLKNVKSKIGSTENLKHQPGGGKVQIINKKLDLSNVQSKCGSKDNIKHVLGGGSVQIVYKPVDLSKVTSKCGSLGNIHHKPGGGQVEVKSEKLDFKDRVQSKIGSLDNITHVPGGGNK
PROCEDURE DETAILS: K18PL tau centrifugation (sedimentation) assay, SDS-PAGE densitometry
Type: biochemical
PARTICULARS: Table 4; K18PL tau centrifugation assay
Criterion: Tau Cent. Assay % Soluble strictly under 60%. Met: T. Not met: F.

{"columns": ["SMILES STR", "CAT"],
 "data": [
  ["CCOC(=O)c1nn(-c2ccc(Cl)cc2)c(=O)c2c(N)sc(Cl)c12", "F"],
  ["CCOC(=O)c1nn(-c2ccc(N(C)C)cc2)c(=O)c2c(N)scc12", "F"],
  ["CC(C)NC(=O)c1nn(-c2ccc(OC(F)(F)F)cc2)c(=O)c2c(N)scc12", "T"],
  ["CCOC(=O)c1nn(-c2ccc(OC(F)(F)F)cc2)c(=O)c2c(N)scc12", "T"],
  ["CCOC(=O)c1ccccc1-n1nc(C(=O)OCC)c2csc(N)c2c1=O", "T"],
  ["CCOC(=O)c1nn(-c2ccccc2C)c(=O)c2c(N)scc12", "T"],
  ["CCOC(=O)c1cccc(-n2nc(C(=O)OCC)c3csc(N)c3c2=O)c1", "F"],
  ["CCOC(=O)c1nn(-c2ccc(I)cc2)c(=O)c2c(N)scc12", "F"],
  ["CC(C)NC(=O)c1nn(-c2cccc(Cl)c2)c(=O)c2c(N)scc12", "F"],
  ["CCOC(=O)c1nn(-c2ccc(N=[N+]=[N-])cc2)c(=O)c2c(N)scc12", "T"],
  ["CCOC(=O)c1nn(-c2ccccc2-c2ccccc2)c(=O)c2c(N)scc12", "F"],
  ["Nc1scc2c(C(=O)O)nn(-c3ccc(Br)cc3)c(=O)c12", "F"],
  ["Nc1scc2c(C(=O)NCCO)nn(-c3ccc(Cl)cc3)c(=O)c12", "F"],
  ["CC(C)NC(=O)c1nn(-c2ccc(F)cc2)c(=O)c2c(N)scc12", "F"],
  ["Nc1scc2c(C(=O)O)nn(-c3ccc(OC(F)(F)F)cc3)c(=O)c12", "F"],
  ["CCOC(=O)c1nn(-c2cccc(Br)c2)c(=O)c2c(N)scc12", "F"],
  ["CCOC(=O)c1nn(-c2ccc(Cl)cc2)c(=O)c2c(NC)scc12", "T"],
  ["CCOC(=O)c1nn(-c2ccc(C)cc2C)c(=O)c2c(N)scc12", "T"],
  ["CCOC(=O)c1nn(-c2ccc(F)cc2)c(=O)c2c(N)scc12", "F"],
  ["CCOC(=O)c1nn(-c2cccc(C)c2)c(=O)c2c(N)scc12", "T"],
  ["CCOC(=O)c1nn(-c2ccc(C(C)C)cc2)c(=O)c2c(N)scc12", "T"],
  ["Cc1nn(-c2ccc(Cl)cc2)c(=O)c2c(N)scc12", "F"]
]}

---

ASSAY SYSTEM: K18PL tau (Homo sapiens, UniProt P10636, P618L)
Construct: (K18PL; amino acids 244-369); made in house
PROCEDURE DETAILS: Heparin-induced K18PL tau fibrillization assay monitored by ThT fluorescence
Format: biochemical
PARTICULARS: Table 4; highest tested concentration (80 μM); read-out: Tau ThT Assay % Inhib.
Use 1 when the recorded inhibition at 80 µM is no lower than 90%; use -1 when it is lower.

{"columns": ["COMPOUND", "ASSAY SYSTEM", "CAT"],
 "data": [
  ["CCOC(=O)c1nn(-c2ccccc2Cl)c(=O)c2c(N)scc12 [CNDR-51425]", "K18PL tau (Homo sapiens, UniProt P10636, P618L)", -1],
  ["CCOC(=O)c1cccc(-n2nc(C(=O)OCC)c3csc(N)c3c2=O)c1 [CNDR-51420]", "K18PL tau (Homo sapiens, UniProt P10636, P618L)", -1],
  ["CCOC(=O)c1nn(-c2ccc(O)cc2)c(=O)c2c(N)scc12 [CNDR-51363]", "K18PL tau (Homo sapiens, UniProt P10636, P618L)", -1],
  ["CCN(CC)C(=O)c1nn(-c2ccc(OC)cc2)c(=O)c2c(N)scc12 [CNDR-51443]", "K18PL tau (Homo sapiens, UniProt P10636, P618L)", -1],
  ["CCOC(=O)c1nn(-c2cccc(C)c2)c(=O)c2c(N)scc12 [CNDR-51423]", "K18PL tau (Homo sapiens, UniProt P10636, P618L)", -1],
  ["NNC(=O)c1nn(-c2ccc(Cl)cc2)c(=O)c2c(N)scc12 [CNDR-51378]", "K18PL tau (Homo sapiens, UniProt P10636, P618L)", 1],
  ["CCOC(=O)c1nn(-c2ccccc2-c2ccccc2)c(=O)c2c(N)scc12 [CNDR-51435]", "K18PL tau (Homo sapiens, UniProt P10636, P618L)", -1],
  ["Nc1scc2c(C(=O)O)nn(-c3ccc(Br)cc3)c(=O)c12 [CNDR-51389]", "K18PL tau (Homo sapiens, UniProt P10636, P618L)", 1]
]}

Just for reference, patent US20130029983A1 is where these values come from.
